Test: chemical genetic growth profiling, strain panel (AID 1159580);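 note: tested at 20 µM; growth read once vehicle control cultures reached saturation at 30 °C; lower values mean less growth of the strain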
Details: S. cerevisiae deletion strains, growth OD, locus YOR001W, strain rrp6
Hit rate of the full screen: of about 5,500 compounds, about 2,000 (36%) were called active. Roughly 18% stayed inconclusive and do not appear here. Cut-off read from the data, not from the text of the source: active = normalized growth mostly below about 0.91 (no sharp cut-off); inconclusive = no clear call, values can overlap the other calls; inactive = mostly above about 0.92. This is one part of the list.
Please answer using one outcome listed in Y (active), N (inactive)

Query string: What was the test verdict on `Cc1c(S(=O)(=O)O)oc2c1C(=O)C(=O)c1c-2ccc2c1CCCC2(C)C` ?
Result string: N

Query string: Try this molecule next: O=S1OCC2C(CO1)C1(Cl)C(Cl)=C(Cl)C2(Cl)C1(Cl)Cl (configuration not stated)
Result string: N

Query string: Try this molecule next: CCCC(=O)O[C@]1(C(=O)CO)CCC2[C@@H]3CCC4=CC(=O)CC[C@]4(C)C3[C@@H](O)C[C@@]21C (some centres not stated)
Result string: N

Query string: Try this molecule next: `CC(C)(C)CC(C)(C)c1ccc(O)c(Cc2ccc(Cl)cc2Cl)c1`
Result string: N

Query string: Try this molecule next: `CCOC(=O)[C@H](CCc1ccccc1)N[C@@H](C)C(=O)N1[C@H](C(=O)O)C[C@@H]2CCC[C@@H]21`
Result string: N
